# assay_summary: Inhibition of Wnt3A/beta-catenin signaling-mediated Tcf4 transcriptional activity in human HEK293T cells at dual luciferase reporter gene assay EC50 after 24 hrs by FOPglow reporter gene assay
# Set-up: scale not given: the % may be the effect or the level left
molecules and their reported activity
Answer with a number only, understood to be in %.

Example cases with answers are listed next.
>>> measured_number("O=C1/C(=C/c2ccc(O)cc2)CCC/C1=C\\c1ccc(O)cc1")
85.1
>>> measured_number("O=C(/C=C/c1ccccc1)c1ccccc1 [CHALCONE]")
112
>>> measured_number("COc1ccc(/C=C/C(=O)c2ccc(OC)c(O)c2)cc1O")
131
>>> measured_number("O=C1/C(=C/c2ccccc2)CC/C1=C\\c1ccccc1")
82.9
>>> measured_number("O=C1/C(=C/c2ccccc2F)CCC/C1=C\\c1ccccc1F")
93
>>> measured_number("COc1ccc(/C=C/C(=O)/C=C/c2ccc(OC)c(O)c2)cc1O")
105

Let us examine a further case.
Read off the recorded activity for COc1ccc(/C=C2\CC/C(=C\c3ccc(OC)c(O)c3)C2=O)cc1O
110

Cited source for all entries: ChEMBL document CHEMBL3102846
